- ASSAYED TARGET: Caspase-5 (Homo sapiens (Human))
- Sequence (P51878 137-434): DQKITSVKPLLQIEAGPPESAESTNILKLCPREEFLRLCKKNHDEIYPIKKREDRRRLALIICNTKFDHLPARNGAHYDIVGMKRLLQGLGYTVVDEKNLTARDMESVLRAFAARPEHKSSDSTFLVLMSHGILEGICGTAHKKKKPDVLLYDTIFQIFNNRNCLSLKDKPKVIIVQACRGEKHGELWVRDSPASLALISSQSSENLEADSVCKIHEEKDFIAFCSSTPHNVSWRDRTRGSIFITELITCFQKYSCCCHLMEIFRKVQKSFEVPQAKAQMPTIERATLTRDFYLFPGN
- EXPERIMENTAL PROTOCOL: Caspase-5 Inhibitor Drug Screening Kit, fluorometric (AFC liberation)
- Type: biochemical
- ASSAY CONDITIONS: 30-minute incubation at 37° C.; approximations of the average values; read-out: Caspase enzymatic activity, IC50 (uM) Caspase 5
MEASURED PARAMETER: IC50

Query for Caspase-5 (Homo sapiens (Human)): what IC50 does the record show for Cc1ccc(S(=O)(=O)N[C@@H](Cc2ccc3ccccc3n2)C(=O)N[C@H](C(=O)N[C@H](/C=C(\Cl)S(C)(=O)=O)CC(=O)O)C(C)C)cc1 [Compound 50] ?
> 3.33 µM

Query the reported IC50 for Caspase-5 (Homo sapiens (Human)); item: CC(C)[C@H](NC(=O)[C@H](Cc1ccc2ccccc2n1)NC(=O)[C@H](CC(=O)O)NC(=O)OCc1ccccc1)C(=O)N[C@H](/C=C/S(C)(=O)=O)CC(=O)O [Compound 55]
> 10 µM

Notebook entry, Caspase-5 (Homo sapiens (Human)) assay: IC50 of CC(C)[C@H](NC(=O)[C@H](Cc1ccc2ccccc2n1)NC(=O)[C@H](CC(=O)O)NC(=O)OCc1ccccc1)C(=O)N[C@H](/C=C/S(=O)(=O)Oc1ccccc1)CC(=O)O [Compound 65] = ?
> 3.33 µM

Give recorded IC50 with Caspase-5 (Homo sapiens (Human)) for the following compound: CC(C)[C@H](NC(=O)[C@H](Cc1ccc2ccccc2n1)NC(=O)[C@H](CC(=O)O)NC(=O)OCc1ccccc1)C(=O)N[C@H](/C=C/S(=O)(=O)c1ccccc1)CC(=O)O [Compound 63]
> 3.33 µM

Field: IC50 (Caspase-5 (Homo sapiens (Human))). Entry: COC(=O)C[C@@H](/C=C/S(C)(=O)=O)NC(=O)[C@@H](NC(=O)[C@@H](NC(=O)[C@H](CC(=O)OC)NC(=O)OCc1ccccc1)c1ccccc1)C(C)C [Compound 101]
> 3.33 µM

---

- ASSAYED TARGET: Caspase-3 (Homo sapiens (Human), UniProt P42574)
- Sequence (P42574 29-277): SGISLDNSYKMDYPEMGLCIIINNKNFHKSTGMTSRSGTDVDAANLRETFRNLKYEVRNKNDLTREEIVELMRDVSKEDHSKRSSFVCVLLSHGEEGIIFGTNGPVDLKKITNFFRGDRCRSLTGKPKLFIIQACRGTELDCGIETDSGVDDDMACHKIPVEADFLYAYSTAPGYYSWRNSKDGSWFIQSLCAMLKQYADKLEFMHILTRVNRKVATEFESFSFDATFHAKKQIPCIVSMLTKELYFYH
- EXPERIMENTAL PROTOCOL: Caspase-3 Inhibitor Drug Screening Kit, fluorometric (AFC liberation)
- Assay type: biochemical
- ASSAY CONDITIONS: 30-minute incubation at 37° C.; approximations of the average values; read-out: Caspase enzymatic activity, IC50 (uM) Caspase 3
MEASURED PARAMETER: log10 IC50 (log10 of the value in µM)
Scale: log10; quantity: IC50; unit before log: µM

Would you mind telling me what log10 IC50 value was observed for CC(C)[C@H](NC(=O)[C@H](CCC(=O)O)NC(=O)[C@H](CC(=O)O)NC(=O)OCc1ccccc1)C(=O)N[C@H](/C=C/S(C)(=O)=O)CC(=O)O ?
-1.70

What does the data say about its log10 IC50? Entry: CC(C)[C@H](NC(=O)[C@H](Cc1ccc2ccccc2n1)NC(=O)[C@H](CC(=O)O)NC(=O)OCc1ccccc1)C(=O)N[C@H](/C=C/S(=O)(=O)c1ccccc1)CC(=O)O
-1.40

Consider the compound shown here: CC(C)[C@H](NC(=O)[C@H](Cc1ccc(O)cc1)NC(=O)[C@H](CC(=O)O)NC(=O)OCc1ccccc1)C(=O)N[C@H](/C=C/S(C)(=O)=O)CC(=O)O What is its recorded log10 IC50?
-1.52

Dear colleague, I am looking for the recorded log10 IC50 of the following compound: CC(C)[C@H](NC(=O)[C@H](Cc1ccc2ccccc2n1)NC(=O)[C@H](CC(=O)O)NC(=O)OCc1ccccc1)C(=O)N[C@H](/C=C(\Cl)S(C)(=O)=O)CC(=O)O
-2.00

Need log10 IC50 of CC(C)[C@H](NC(=O)[C@H](Cc1ccc2ccccc2n1)NC(=O)[C@H](CC(=O)O)NC(=O)OCc1ccccc1)C(=O)N[C@H](/C=C/S(=O)(=O)Oc1ccccc1)CC(=O)O , thanks.
-2.00

I am curious: what log10 IC50 value has been reported for CC(C)[C@H](NC(=O)[C@@H](NC(=O)[C@H](CC(=O)O)NC(=O)OCc1ccccc1)C1Cc2ccccc2C1)C(=O)N[C@H](/C=C/S(C)(=O)=O)CC(=O)O ?
-1.52

Fill in: log10 IC50 of CC(C)[C@H](NC(=O)[C@H](Cc1c[nH]c2ccccc12)NC(=O)[C@H](CC(=O)O)NC(=O)OCc1ccccc1)C(=O)N[C@H](/C=C/S(C)(=O)=O)CC(=O)O is ___
-1.40

Suppose we examine the compound CC(C)[C@H](NC(=O)[C@H](Cc1ccc2ccccc2n1)NC(=O)[C@H](CC(=O)OC(C)(C)C)NC(=O)OCc1ccccc1)C(=O)N[C@H](/C=C/S(=O)(=O)N1CCOCC1)CC(=O)OC(C)(C)C ; what log10 IC50 value has been reported?
-0.70

Item CC(C)[C@H](NC(=O)[C@@H](NC(=O)[C@H](CC(=O)O)NC(=O)OCc1ccccc1)c1ccccc1)C(=O)N[C@H](/C=C/S(=O)(=O)c1ccccc1)CC(=O)O has what recorded log10 IC50?
-1.00

Find the recorded log10 IC50 belonging to CC(C)[C@H](NC(=O)[C@@H](NC(=O)[C@H](CC(=O)O)NC(=O)OCc1ccccc1)C1Cc2ccccc2C1)C(=O)N[C@H](/C=C/S(=O)(=O)C(C)C)CC(=O)O and report it.
-0.70

For the compound shown here, COC(=O)C[C@@H](/C=C/S(C)(=O)=O)NC(=O)[C@@H](NC(=O)[C@@H](NC(=O)[C@H](CC(=O)OC)NC(=O)OCc1ccccc1)C1Cc2ccccc2C1)C(C)C , give the reported log10 IC50.
0.00

Reported log10 IC50, compound CC(C)[C@H](NC(=O)[C@H](Cc1ccccn1)NC(=O)[C@H](CC(=O)O)NC(=O)OCc1ccccc1)C(=O)N[C@H](/C=C/S(=O)(=O)c1ccccc1)CC(=O)O : ____
-1.52

Fill in the blank: the reported log10 IC50 of CC(C)[C@H](NC(=O)[C@@H](NC(=O)[C@H](CC(=O)O)NC(=O)OCc1ccccc1)c1ccccc1)C(=O)N[C@H](/C=C/S(C)(=O)=O)CC(=O)O is ____.
-1.22
